# reported water absorbed (dynamic vapor sorption); entries follow
experiment: Hygroscopicity by dynamic vapor sorption (DVS); assay type: physicochemical; conditions: up to 95% RH at 25° C.; bis-mesylate

>>> result("C1=C(c2ccc3cn[nH]c3c2)N=C(Nc2ccc(N3CCOCC3)cc2)C2=NCCN12.CS(=O)(=O)O.CS(=O)(=O)O [Form VI]")
"~17 wt. %"

Consider the additional molecule presented here.
QUERY: Please indicate water absorbed (dynamic vapor sorption) recorded for C1=C(c2ccc3cn[nH]c3c2)N=C(Nc2ccc(N3CCOCC3)cc2)C2=NCCN12.CS(=O)(=O)O.CS(=O)(=O)O [Form XIII]
RESULT: ~25 wt. %

----------
# reported water absorbed (dynamic vapor sorption); entries follow
Assay: Hygroscopicity by dynamic vapor sorption (DVS)
Assay type: physicochemical
Conditions: up to 95% RH at 25° C.; bis-mesylate
Description: Hygroscopicity was studied using dynamic vapor sorption (DVS, TA Q5000 SA, TA Instruments, New Castle, DE or DVS, DVS Intrinsic, Surface Measurement Systems, London, UK). A sample (2-20 mg) was placed in an aluminum DVS pan and loaded on the sample side of the twin pan balance. The water sorption and desorption were studied as a function of relative humidity (RH) at 25° C. In 10% RH increments, the relative humidity was increased from 5% RH to 95% RH and then decreased back to 5%. […]

>>> result("C1=C(c2ccc3cn[nH]c3c2)N=C(Nc2ccc(N3CCOCC3)cc2)C2=NCCN12.CS(=O)(=O)O.CS(=O)(=O)O [Form XV]")
"~23 wt. %"

Consider the additional molecule presented here.
QUERY: Please indicate water absorbed (dynamic vapor sorption) recorded for C1=C(c2ccc3cn[nH]c3c2)N=C(Nc2ccc(N3CCOCC3)cc2)C2=NCCN12.CS(=O)(=O)O.CS(=O)(=O)O [Form XVI]
RESULT: ~28 wt. %
